# Tested on: 817829-284-R-J1-PDC complex spheroid viability;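 also: spheroids exposed to compounds for 7 days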
# assayNotes: Anticancer human tumor 817829-284-R-J1-PDC patient-derived colon adenocarcinoma cell line growth inhibition [POLQ]
# testParameters: second compound 10 µM; first compound 0.00316 µM; hits give low values
So basically: is viability, T/C under 80%? Then criterion met. Not under? Then criterion not met.

compound	qualitativeLabel
CC[C@@]1(O)C(=O)OCc2c1cc1n(c2=O)Cc2cc3c(CN(C)C)c(O)ccc3nc2-1 + Nc1ccc(C#CCN(C(=O)Cc2ncc(C(F)(F)F)cc2C(F)(F)F)c2ccc(F)cc2)nn1	criterion met
COc1cccc(OCCCN)c1-c1cc(Nc2cnc(C#N)cn2)n[nH]1 + COC1C(OC(N)=O)C(O)C(Oc2ccc3c(O)c(NC(=O)c4ccc(O)c(CC=C(C)C)c4)c(=O)oc3c2C)OC1(C)C	criterion met
CC[C@@]1(O)C(=O)OCc2c1cc1n(c2=O)Cc2cc3c(CN(C)C)c(O)ccc3nc2-1 + Cc1cccc(N(C)C(=O)C2C(O)CCN2c2nc(C)cc(C(F)(F)F)c2C#N)c1	criterion not met
Cn1ncnc1[C@H]1c2n[nH]c(=O)c3cc(F)cc(c23)N[C@@H]1c1ccc(F)cc1 + COC1C(OC(N)=O)C(O)C(Oc2ccc3c(O)c(NC(=O)c4ccc(O)c(CC=C(C)C)c4)c(=O)oc3c2C)OC1(C)C	criterion met
CC[C@@]1(O)C(=O)OCc2c1cc1n(c2=O)Cc2cc3c(CN(C)C)c(O)ccc3nc2-1 + COC1C(OC(N)=O)C(O)C(Oc2ccc3c(O)c(NC(=O)c4ccc(O)c(CC=C(C)C)c4)c(=O)oc3c2C)OC1(C)C	criterion met
C=CCn1c(=O)c2cnc(Nc3ccc(N4CCN(C)CC4)cc3)nc2n1-c1cccc(C(C)(C)O)n1 + Nc1ccc(C#CCN(C(=O)Cc2ncc(C(F)(F)F)cc2C(F)(F)F)c2ccc(F)cc2)nn1	criterion not met

Task: Threshold test, viability, T/C < 80%: CCc1c2c(nc3ccc(O)cc13)-c1cc3c(c(=O)n1C2)COC(=O)[C@]3(O)CC + Cc1cccc(N(C)C(=O)C2C(O)CCN2c2nc(C)cc(C(F)(F)F)c2C#N)c1
Output: criterion met
